Tested on: wheat germ agglutinin (Triticum aestivum), Alexa647-labelled
procedure details: wheat germ agglutinin binders on compound microarrays, profiling panel, artefact control for SMM control-protein annotation, biochemical, small-molecule microarray, 635/667 nm fluorescence (AID 1140);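 further: score merges 667 nm feature emission with signal to noise over triplicate slides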
setup conditions: WGA-A647 binding, 635 nm fluorescence, higher = more signal
Class TRUE: composite z-score at least 0.9. Class FALSE: composite z-score below 0.9.

# count of solved cases: 5
COCCCNC(=O)[C@@]1(C)c2ccccc2C(=O)N(C(C)C)[C@H]1c1ccc(CO)cc1 :: FALSE
COC(=O)[C@@]1(Cc2ccccc2)N=C(c2ccc(OCCCO)cc2)O[C@H]1c1ccccc1 :: FALSE
C[N+](C)(C)CCCCNC(=O)[C@H]1C[C@H]2C(=O)N3CCC[C@H]3C(=O)N2[C@H]1c1cccc(OCCO)c1 :: FALSE
COC(=O)[C@@]1(Cc2ccc(OC)cc2)[C@H]2c3cc(C(=O)N4CCCC4)n(Cc4ccc(C)c(F)c4F)c3C[C@H]2CN1C(=O)c1ccccc1 :: TRUE
COCCOC(=O)N1C(=O)[C@@]2(c3cc(C#CCCO)ccc31)[C@H](C(N)=O)[C@H]1C(=O)O[C@H](c3ccccc3)[C@H](c3ccccc3)N1[C@@H]2c1ccc(O)cc1 :: FALSE

**Q:** Hello, I need to know if "COc1cccc(-c2cccc(=O)o2)c1" has measured composite z-score not below 0.9. Thanks!
**A:** FALSE

**Q:** Hello, I need to know if "CN(C)C(=O)[C@]1(Cc2ccccc2N=[N+]=[N-])N=C(c2ccc(OCCCO)cc2)O[C@@H]1c1ccccc1N=[N+]=[N-]" has measured composite z-score not below 0.9. Thanks!
**A:** TRUE

**Q:** Hello, I need to know if "C#C[C@H](O[Si](C#Cc1ccc(Oc2ccccc2)cc1)(C(C)C)C(C)C)c1ccccc1" has measured composite z-score not below 0.9. Thanks!
**A:** FALSE

**Q:** Hello, I need to know if "CCC[C@@H]1C[C@@]1(CCC)[C@@H](NC(=O)c1ccccc1)c1cccc(Cl)c1" has measured composite z-score not below 0.9. Thanks!
**A:** TRUE

**Q:** Hello, I need to know if "CC(C)[Si](C#Cc1ccc(Oc2ccccc2)cc1)(O[Si](C#Cc1ccc(Oc2ccccc2)cc1)(C(C)C)C(C)C)C(C)C" has measured composite z-score not below 0.9. Thanks!
**A:** FALSE

**Q:** Hello, I need to know if "CCCCCCc1nc(-c2cc(C)c(OC)c(C)c2)cc2c1[Si](C(C)C)(C(C)C)OC2" has measured composite z-score not below 0.9. Thanks!
**A:** FALSE

====

procedure details: PSAC antagonists in infected red cells, primary screen, cell-based, P. falciparum Indochina, OD700, 18 h (AID 1157)
setup conditions: P. falciparum Indochina infected erythrocytes, osmotic lysis OD700, 18 h; higher = more signal, called active from +8 up or from −8 down
Listed here are compounds together with their documented z-score.
Reply briefly: the number, and no unit.

// solved cases for z-score follow
COCCOC(=O)N1C(=O)[C@@]2(c3cc(C#Cc4ccc(OC)cc4)ccc31)[C@H](c1ccccc1OCCO)N1[C@H](c3ccccc3)[C@H](c3ccccc3)OC(=O)[C@H]1[C@@H]2C(=O)NC[C@H](O)c1ccccc1 :: 0.804
COc1ccc(CCNC(=O)[C@@]2(Sc3ccc(C)cc3)CC(=O)N(C(C)C)[C@@H]2c2ccc(CO)cc2I)cc1 :: -0.135

**Q:** Consider the compound shown here: "[N-]=[N+]=Nc1ccccc1[C@H]1OC(c2ccc(OCCCO)cc2)=N[C@@]1(CCS(=O)(=O)c1ccccc1)C(N)=O" What is its recorded z-score?
**A:** 2.16
